ASSAYED_TARGET: c-Src SH2;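 also: peptide library displayed on the E. coli surface as eCPX fusions, selected cells deep-sequenced, score is each peptide's frequency after selection divided by its frequency in the input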
PROTOCOL: SH2 binding enrichment of the phosphorylated peptide, bacterial display (enrichment ratio); higher = better substrate or ligand; peptides without Tyr show the background
Could you label it yes (1) if measured SH2 binding enrichment is 0.9 or higher, and no (0) otherwise?

CHAIN | CLASS_LABEL
PASWTYVRWFD [PTDSS1_Y274] | no (0)
FQEKGYNKELR [CHRND_Y38] | no (0)
ADLAKYICENR [ALB_Y287_Q292R] | no (0)
NHRNQYQALKT [CLSPN_Y887_P892T] | yes (1)
ETAENYLGHTA [HSPA9_Y181] | no (0)
QRCFVYFFSFL [PTEN_Y176_R173C_YF] | yes (1)

Ask: Form field: SH2 binding enrichment at least 0.9? Entry: GCKNRYDKGKP [THAP1_Y14_D17G]
Result: yes (1)

Ask: Form field: SH2 binding enrichment at least 0.9? Entry: LERFIYNPEEF [HLA-DPB1_Y59_R61P_YF]
Result: no (0)

The measurements presented in this section are drawn from the supplement of paper PMC10065799.
